EXPERIMENTAL_TARGET: Metabotropic glutamate receptor 8 (Homo sapiens) (UniProt O00222)
Sequence (O00222 whole entry, looked up): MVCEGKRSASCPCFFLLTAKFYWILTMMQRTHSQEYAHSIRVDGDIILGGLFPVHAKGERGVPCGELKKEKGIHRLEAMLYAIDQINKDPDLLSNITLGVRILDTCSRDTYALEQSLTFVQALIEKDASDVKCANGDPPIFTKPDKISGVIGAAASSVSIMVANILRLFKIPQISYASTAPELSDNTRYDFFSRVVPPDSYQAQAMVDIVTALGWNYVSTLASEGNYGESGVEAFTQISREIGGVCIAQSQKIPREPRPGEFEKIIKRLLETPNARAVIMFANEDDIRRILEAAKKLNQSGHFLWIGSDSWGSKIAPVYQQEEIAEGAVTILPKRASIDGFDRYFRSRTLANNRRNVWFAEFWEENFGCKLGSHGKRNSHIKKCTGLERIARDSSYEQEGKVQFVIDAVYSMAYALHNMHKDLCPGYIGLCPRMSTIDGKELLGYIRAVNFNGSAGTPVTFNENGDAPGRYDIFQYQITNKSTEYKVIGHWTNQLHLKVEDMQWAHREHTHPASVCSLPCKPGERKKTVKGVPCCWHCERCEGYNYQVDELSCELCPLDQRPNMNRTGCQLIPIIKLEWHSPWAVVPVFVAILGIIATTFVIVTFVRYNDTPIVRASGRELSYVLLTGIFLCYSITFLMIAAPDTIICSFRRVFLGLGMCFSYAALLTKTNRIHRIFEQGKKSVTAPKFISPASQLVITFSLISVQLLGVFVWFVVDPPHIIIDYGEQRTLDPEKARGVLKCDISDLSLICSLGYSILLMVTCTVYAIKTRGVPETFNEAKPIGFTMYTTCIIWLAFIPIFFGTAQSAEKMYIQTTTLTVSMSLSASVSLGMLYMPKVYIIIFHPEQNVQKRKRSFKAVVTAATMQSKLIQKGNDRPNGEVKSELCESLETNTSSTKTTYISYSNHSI
PROCEDURE_SUMMARY: potentiation of glutamate EC20 at mGlu8 – rat receptor, calcium, dose response (AID 743425)
MEASUREMENT_CONDITIONS: rat mGlu8, Fluo-4 calcium
Quick reference for EC50 among some compounds
PROPERTY_LABEL: EC50

- COMPOUND: "COC(=O)c1ccc(-n2c(C)cc(C(=O)CSCc3ccc(OC)cc3)c2C)cc1"
  PROPERTY_LABEL: "EC50"
  ENDPOINT_RESULT: "1.6 µM"
- COMPOUND: "CC(=O)Nc1ccc(SCC(=O)c2cc(C)n(CC3COc4ccccc4O3)c2C)cc1 (stereo unspecified)"
  PROPERTY_LABEL: "EC50"
  ENDPOINT_RESULT: "1.14 µM"
- COMPOUND: "COC(=O)c1ccc(-n2c(C)cc(C(=O)CSCc3cccc(C)c3)c2C)cc1"
  PROPERTY_LABEL: "EC50"
  ENDPOINT_RESULT: "3.16 µM"
- COMPOUND: "CCOc1ccc(-n2c(C)cc(C(=O)CSc3ccc(OC)cc3)c2C)cc1"
  PROPERTY_LABEL: "EC50"
  ENDPOINT_RESULT: "3.16 µM"
- COMPOUND: "COc1ccc(SCC(=O)c2cc(C)n(-c3ccc(OC(F)F)cc3)c2C)cc1"
  PROPERTY_LABEL: "EC50"
  ENDPOINT_RESULT: "3.16 µM"
- COMPOUND: "CC(=O)Nc1ccc(OCC(=O)c2cc(C)n(-c3ccc(OC(F)F)cc3)c2C)cc1"
  PROPERTY_LABEL: "EC50"
  ENDPOINT_RESULT: "3.5 µM"
- COMPOUND: "COC(=O)c1ccc(-n2c(C)cc(C(=O)CSc3ccc(N(C)C(C)=O)cc3)c2C)cc1"
  PROPERTY_LABEL: "EC50"
  ENDPOINT_RESULT: "3.3 µM"
- COMPOUND: "CCOc1ccc(-n2c(C)cc(C(=O)CSCc3cccc(C)c3)c2C)cc1"
  PROPERTY_LABEL: "EC50"
  ENDPOINT_RESULT: "3.16 µM"
- COMPOUND: "CCn1c(C)cc(C(=O)CSc2ccc(NC(C)=O)cc2)c1C"
  PROPERTY_LABEL: "EC50"
  ENDPOINT_RESULT: "10 µM"
- COMPOUND: "COC(=O)c1ccc(-n2c(C)cc(C(=O)COc3ccc(OC(C)=O)cc3)c2C)cc1"
  PROPERTY_LABEL: "EC50"
  ENDPOINT_RESULT: "10 µM"
- COMPOUND: "CC(=O)Nc1ccc(SCC(=O)c2cc(C)n(-c3ccc(S(N)(=O)=O)cc3)c2C)cc1"
  PROPERTY_LABEL: "EC50"
  ENDPOINT_RESULT: "3.16 µM"
- COMPOUND: "CC(=O)Nc1ccc(SCC(=O)c2cc(C)n(-c3nc(C)cs3)c2C)cc1"
  PROPERTY_LABEL: "EC50"
  ENDPOINT_RESULT: "10 µM"
- COMPOUND: "COC(=O)c1ccc(-n2c(C)cc(C(=O)COc3ccc(NC(C)=O)cc3)c2C)cc1"
  PROPERTY_LABEL: "EC50"
  ENDPOINT_RESULT: "3.4 µM"
- COMPOUND: "CCOc1ccc(-n2c(C)cc(C(=O)CSCc3ccc(OC)cc3)c2C)cc1"
  PROPERTY_LABEL: "EC50"
  ENDPOINT_RESULT: "3.16 µM"
- COMPOUND: "CC(=O)Nc1ccc(SCC(=O)c2cc(C)n(CC3CCCO3)c2C)cc1 (stereo unspecified)"
  PROPERTY_LABEL: "EC50"
  ENDPOINT_RESULT: "3.44 µM"
- COMPOUND: "CC(=O)Nc1ccc(SCC(=O)c2cc(C)n(CCc3cccs3)c2C)cc1"
  PROPERTY_LABEL: "EC50"
  ENDPOINT_RESULT: "1.6 µM"
- COMPOUND: "CC(=O)Nc1ccc(SCC(=O)c2cc(C)n(-c3ccccc3F)c2C)cc1"
  PROPERTY_LABEL: "EC50"
  ENDPOINT_RESULT: "3.16 µM"
- COMPOUND: "COC(=O)c1ccc(-n2c(C)cc(C(=O)CSc3ccc(NC(C)=O)cc3)c2C)cc1"
  PROPERTY_LABEL: "EC50"
  ENDPOINT_RESULT: "0.93 µM"
- COMPOUND: "CC(=O)Nc1ccc(SCC(=O)c2cc(C)n(-c3cccc(F)c3)c2C)cc1"
  PROPERTY_LABEL: "EC50"
  ENDPOINT_RESULT: "1.5 µM"
- COMPOUND: "Cc1ccc(CSCC(=O)c2cc(C)n(-c3ccc(OC(F)F)cc3)c2C)cc1"
  PROPERTY_LABEL: "EC50"
  ENDPOINT_RESULT: "3.16 µM"
- COMPOUND: "COc1ccc(CSCC(=O)c2cc(C)n(-c3ccc(OC(F)F)cc3)c2C)cc1"
  PROPERTY_LABEL: "EC50"
  ENDPOINT_RESULT: "0.23 µM"

Origin of values: PubChem BioAssay AID743425
